System: MDA-MB-468 breast
test name: NCI-60 one-dose screen, 48 h
condition description: 10 µM unless noted
The panel holds about 83,000 compounds, 20% with a hit somewhere; the sample as a whole holds those more often. The source made the active and inactive calls. How the source made its calls: active means growth percent below 10; inactive means the rest.
Please state which outcome applies, choosing from Yes (active), No (inactive)

Query: Which outcome was entered for the molecule CC(=O)Nc1nc(C)c(C(=O)NNS(=O)(=O)c2ccccc2)s1 in this test?
Result: No

Query: What classification did COC(=O)[C@]12CC[C@@H](C)[C@H](C)[C@@H]1C1=CC[C@@H]3[C@@]4(C)C(C#N)=CC(C)=C4CC[C@@]3(C)[C@]1(C)CC2 end up with in this test?
Result: No

Query: Per the assay record, what outcome was assigned to O=C(O)c1ccccc1NCc1ccco1 ?
Result: No

Query: Outcome? COc1ccc(-c2n[nH]c(=O)c3nc(NC(=S)Nc4ccc(Oc5ccccc5)cc4)sc23)cc1
Result: No

---

System: MDA-MB-468 breast
test name: NCI-60 one-dose screen, 48 h (100 = growth as untreated, 0 = no growth, -100 = all killed)
condition description: 10 µM unless noted
Compounds without any hit were thinned out: in the full panel of roughly 83,000, 20% have a hit.
assay metric: growth (%)
Give bare numbers, in %.

Query: Specify growth for COc1ccc(NS(=O)(=O)c2ccc(C)cc2)c([N+](=O)[O-])c1 and stop.
Result: 86.6

Query: For the compound O=C1Cc2cc(CCn3cncn3)c(Cl)cc2N1 , report growth.
Result: 35.1

Query: Given CCOC(=O)C(Cc1ccccc1)n1c(O)c(C=Nc2ccc(C(=O)OCCN(CC)CC)cc2)sc1=O (stereo not given) , respond with its growth.
Result: 82.6

Query: Report growth, nothing else, for this compound: O=C(/C=C/c1c(Cl)nc2sccn12)c1ccc(F)c(F)c1
Result: 35.4

Query: Give growth for the following compound: Cc1nc2sccn2c1-c1csc(Nc2cccc(Cl)c2C)n1
Result: -13

Query: State its growth: O=C(CCn1c[n+](CC(=O)c2ccc(F)cc2)c2ccccc21)Nc1cccc2cccnc12
Result: -15.5

Query: Could you please provide reported growth for CO[C@H]1CC(=O)n2c3ccccc3c3c4c(c5c6ccccc6n1c5c32)C(=O)NC4=O ? Thanks!
Result: 34.2

Query: For the compound NS(=O)(=O)c1ccc(CN2C(=O)c3cccc4cccc(c34)C2=O)cc1 , report growth.
Result: 98.2

Query: Report measured growth; entry is CCN=C1C=CC(=C(c2ccc(N(CC)CC)cc2)c2ccc(N(CC)CC)cc2)c2ccccc21
Result: -74.1

Query: Give growth for Brc1ccc(SCN(CSc2ccc(Br)cc2)Cc2ccccc2)cc1
Result: 98.3

Could you tell me growth for each of these compounds? They are listed below.
1. CCCCNC(=O)Oc1ccc(/C(=C(\C)c2ccc(Cl)cc2)c2ccc(OCCN3CCCCC3)cc2)cc1
2. COc1ncc(-c2ccc3nccc(C#CCCCCC(=O)O)c3c2)cc1NS(=O)(=O)c1ccc(F)cc1F
3. Cn1cc(-c2nn3cc(-c4ccncc4)nc3s2)c2cc(F)ccc21
4. COc1ccc(Nc2[nH]n3c(=O)cc(C)nc3c2C(N)=O)c(OC)c1
5. COc1cnc2c(c1)C(=O)c1c-2n(CCCNCCN2CCOCC2)c(=O)c2cc([N+](=O)[O-])ccc12
6. Cc1noc(C)c1C(=O)OCc1coc2ccccc2c1=O
7. O=C1Nc2ccc(F)cc2/C1=C\C(=O)c1ccc(NS(=O)(=O)c2ccccc2)cc1
8. O=C(Nc1nc2ccc(S(=O)(=O)Nc3ccc(C4(C(F)(F)F)CC4)cc3)cc2[nH]1)c1cnccn1

Result:
[62.9, -29.4, 54.6, 97.3, -27, 24.5, 90.3, -12]

Please give growth, item by item, for the list that follows.
1. NC(=O)/C=C/C(=O)c1c(Cl)cccc1Cl
2. COc1ccc(Nc2ncccc2/C=C/C(=O)c2cc(OC)c(OC)c(OC)c2)cc1

Result:
[-83.5, -62.1]

---

System: MDA-MB-468 breast
test name: NCI-60 one-dose screen, 48 h
condition description: 10 µM unless noted
The panel holds about 83,000 compounds, 20% with a hit somewhere; the sample as a whole holds those more often. Activity calls are given as the source filed them. How the source made its calls: active means growth percent below 10; inactive means the rest.
Just give me one of these, please: label 1 for active, label 0 for inactive

Query: What was the test verdict on CCN1CCN(c2cc(C)nc(N(CCNc3ccnc4cc(Cl)ccc34)Cc3ccc4c(c3)OCO4)n2)CC1 ?
Result: label 1

Query: For O=C1C=CC(=O)N1c1ccccc1 , what call appears in the results of this test?
Result: label 0

Query: State the result this test recorded for Cc1cc(Nc2cc(N3CCN(C)CC3)nc(Sc3ccc(NC(=O)C4CC4)cc3)n2)n[nH]1 .
Result: label 0

Query: // outcome(item) with item = O=C1CSC(=S)N1CCc1ccc(O)cc1
Result: label 0

Query: Can you look up the reported call for Cc1ccccc1NC(=O)c1cc2ccccc2cc1O for me?
Result: label 0

Further cases:
Query: What call does the record list for COC(=O)c1c2c(c(C)[n+]([O-])c1C)C(=O)C=C(NCc1ccc(Br)cc1)C2=O ?
Result: label 1

Query: Assay result, entry Cc1cc(Cl)c2c(N(C)C)cccc2n1 — outcome?
Result: label 0

Query: // param item: CC1(C)CC[C@]2(C(=O)NCC#CCN3CCOCC3)CC[C@]3(C)C(=CC[C@@H]4[C@@]5(C)Cc6c([nH]c7ccccc67)C(C)(C)[C@@H]5CC[C@]43C)[C@@H]2C1 ; yields the recorded call
Result: label 0

Query: Assay outcome for CS(=O)(=O)c1ccc(-c2cc(-c3nnc(SCC(=O)Nc4ccc(C(=O)/C=C/c5ccc(Cl)cc5)cc4)n3-c3ccccc3)c3ccccc3n2)cc1 : what was it?
Result: label 0

---

Tested on: SR leukemia
test name: NCI-60 one-dose screen, 48 h (100 = growth as untreated, 0 = no growth, -100 = all killed)
condition description: 10 µM
The panel holds about 83,000 compounds, 20% with a hit somewhere; the sample as a whole holds those more often.
assay metric: growth (%)
Numbers only, in %.

Solved cases (3 shown):
Query: # return recorded growth for entry COc1ccc(C2OC[C@@]3(C)C4CC[C@]5(C)C(CC=C6C7CC(C)(C)CC[C@]7(C(=O)O)CC[C@]65C)[C@@]4(C)C[C@@H](O)[C@@H]3O2)cc1 (some centres undefined)
Result: 54.7

Query: Give recorded growth. C#CCOc1cc(N(CC)CC)ccc1C(C(=O)NC(C)(C)C)N(C(=O)C1CCc2cc(F)ccc2O1)c1ccc(F)cc1F (centres undefined)
Result: 26.6

Query: Report growth, nothing else, for this compound: Cn1cc(/C=C(/SS/C(=C/c2cn(C)c3cccc(C(=O)O)c23)C(=O)O)C(=O)O)c2c(C(=O)O)cccc21
Result: 98.7

API: the following record is the query input.
Query: Please give measured growth of the following entry: Cc1ccc2sc3c(c2c1)Oc1nc[nH]c(=O)c1C3c1cccc(F)c1 (centres undefined)
Result: 96.3

---

Test system: MDA-MB-468 breast
test name: NCI-60 one-dose screen, 48 h (100 = growth as untreated, 0 = no growth, -100 = all killed)
condition description: 10 µM unless noted
The panel holds about 83,000 compounds, 20% with a hit somewhere; the sample as a whole holds those more often.
assay metric: growth (%)
One number for each entry, in %.

Before answering, review these 3 worked examples.
Query: Indicate the recorded growth value for this compound: CC(CC(=O)c1ccccc1)c1ccccc1 (stereo unspecified)
Result: 96.5

Query: Provide one value: measured growth of COc1ccc(/C=C2/C(=O)NC(SCC(=O)N3CCN(c4cc5c(cc4F)c(=O)c(C(=O)O)cn5C4CC4)CC3)=NC2N)cc1OC (stereo unspecified)
Result: 102

Query: Answer with the recorded growth for the compound listed here: CSC(SC)=C(C#N)c1nc2ccccc2s1
Result: 43.8

Items follow; give growth for each.
1. CC(=S)NC(=O)C(=O)/C=C1/NC(=O)C(=O)S1
2. C=C(C)[C@@H]1CC[C@]2(C(N)=O)CC[C@]3(C)[C@H](CC[C@@H]4[C@@]5(C)CCCNC(C)(C)[C@@H]5CC[C@]43C)[C@@H]12
3. O=S(=O)(Nc1ccc(Br)cc1)c1ccc(-c2cnc(C3CC3)o2)cc1
4. COc1ccc(-c2nc(Cl)c3c(C)nn(-c4ccc(F)cc4)c3n2)cc1
5. O=C1NCC(Nc2ccc(Br)cc2Cl)C(=O)N1 (stereo unspecified)
6. Cc1cc(C)cc(Nc2nccc(-c3c(-c4ccc(F)cc4)ncn3C3CCNCC3)n2)c1
7. Nc1ccccc1-c1ccc([N+](=O)[O-])cc1
8. CCN(CC)C(Cl)=Nc1ccc(Cl)cc1

Result:
102
78.3
-12.4
105
124
-29.9
67.5
103

---

System: MDA-MB-468 breast
test name: NCI-60 one-dose screen, 48 h
condition description: 10 µM unless noted
Description: Growth inhibition of the MDA-MB-468 human Breast tumor cell line is measured as a screen for anti-cancer activity. Cells are grown in 96 well plates and exposed to the test compound for 48 hours. Compounds are tested at a single concentration, which is 10^-5 M for most compounds. The reported endpoint is percent growth (GI% or GIPRCNT), where numbers from 0 - 100% represent growth inhibition, and numbers from -100% - 0 represent cell death. […]
This is part of a sample that, as a whole, favours compounds with a hit. Of some 83,000 tested, about 20% had one in any assay. Calls of active or inactive are those of the source. How the source made its calls: active means growth percent below 10; inactive means the rest.
Reply using exactly one outcome from t = active, f = inactive

Query: For Cc1cc(NCc2cc(Nc3ccnc4cc(Cl)ccc34)ccc2F)nc(N2CCN(c3ccccc3)CC2)n1 , what call appears in the results of this test?
Result: f

Others:
Query: What was the test verdict on COc1ccc(C(=O)c2cc3c(N)c(C(=O)Nc4cccc(Br)c4C)sc3nc2C)cc1 ?
Result: t

Query: Test call for this compound, please: CCOC(=O)/C(=C/CC/C(C)=C/CC/C(C)=C/CCc1ccoc1)CC(=O)N1CCCCC1
Result: t

Query: Lab log entry: CN(C)C1CCN(C(=O)c2ccc(NC(=O)Nc3ccc(-c4nc(N5CCOCC5)nc(N5CCOCC5)n4)cc3)cc2)CC1 — outcome as called in the assay?
Result: t

Origin of the recorded values: PubChem BioAssay (NCI)
